Every entry's value here was drawn from patent US20130078237A1.

- assay_system: T1, human CD27L on the surface of cells (human, UniProt P32970 1-193)
- T1 construct: native on Raji and 786-0 cells, recombinant on 293 cells; also called CD70; TNFSF7
- T1 sequence: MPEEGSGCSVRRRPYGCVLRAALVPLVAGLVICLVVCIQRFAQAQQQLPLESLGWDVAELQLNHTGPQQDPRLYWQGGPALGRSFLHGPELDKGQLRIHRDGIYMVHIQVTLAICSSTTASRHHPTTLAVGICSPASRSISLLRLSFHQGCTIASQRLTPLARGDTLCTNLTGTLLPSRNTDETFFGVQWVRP
- test_summary: flow cytometry (FACS) on 786-0 cells
reported_property: EC50 (nM)

binder	unit_of_measurement	recorded_number
Ab8 (antibody, human IgG1, kappa, V domains shown, also called A8; unconjugated Ab8) VH: QVQLVESGGGVVQPGRSLRLSCAASGFTFSSYGMHWVRQAPGKGLEWVAVIWYDGSDKYFADSVKGRFTISRDNSKNTLYLQMNSLRAEDTAVYYCARDGIAGARYVYFDYWGQGTLVTVSS VL: DIQMTQSPSSLSASVGDRVTITCRASQGISNYLAWFQQKPGKAPKSLIYAASSLQGGVPSKFSGSGSGTDFTLTISSLQPEDFATYYCQQYYNYPFTFGPGTTVDIKR	nM	0.02
Ab4-MCC-DM1 (antibody, human IgG1, kappa, V domains shown, DM1 linked through MCC (SMCC) to lysine residues; 4.5-5.0 DM1 molecules per antibody on average, sites not given, also called Ab4 antibody drug conjugate; conjugated Ab4) VH: QVQLVESGGGVVQPGRSLRLSCAASGFTFSNYGIHWVRQAPGKGLEWVAVIWYDGSNKYYADSVKGRFTISRDNSKNTLYLQMNSLRAEDTAVYYCARDGGYSGYDSGFDYWGQGTLVTVSS VL: DIVMTQSPLSLPVTPGEPASISCRSSQSLLNSNGYNYLDWYLQKPGQSPQFLIYLGSYRASGVPDRFSGSGSGTDFTLRISRVEAEDVGVYYCIQTLQTPFTFGPGTKVDIKR	nM	0.1
Ab8-MCC-DM1 (antibody, human IgG1, kappa, V domains shown, also called Ab8 antibody drug conjugate; conjugated Ab8) VH: QVQLVESGGGVVQPGRSLRLSCAASGFTFSSYGMHWVRQAPGKGLEWVAVIWYDGSDKYFADSVKGRFTISRDNSKNTLYLQMNSLRAEDTAVYYCARDGIAGARYVYFDYWGQGTLVTVSS VL: DIQMTQSPSSLSASVGDRVTITCRASQGISNYLAWFQQKPGKAPKSLIYAASSLQGGVPSKFSGSGSGTDFTLTISSLQPEDFATYYCQQYYNYPFTFGPGTTVDIKR	nM	0.08
Ab4 (antibody, human IgG1, kappa, V domains shown, Fully human IgG1; also called A4; unconjugated parental Ab4) VH: QVQLVESGGGVVQPGRSLRLSCAASGFTFSNYGIHWVRQAPGKGLEWVAVIWYDGSNKYYADSVKGRFTISRDNSKNTLYLQMNSLRAEDTAVYYCARDGGYSGYDSGFDYWGQGTLVTVSS VL: DIVMTQSPLSLPVTPGEPASISCRSSQSLLNSNGYNYLDWYLQKPGQSPQFLIYLGSYRASGVPDRFSGSGSGTDFTLRISRVEAEDVGVYYCIQTLQTPFTFGPGTKVDIKR	nM	0.1
